TARGET OF ASSAY: Organic cation/carnitine transporter 2 (Homo sapiens)
ASSAY EXPLANATION: TP_TRANSPORTER: inhibition of carnitine uptake by Carnitine-related compound-5A at 20uM in Xenopus laevis oocytes
Format: functional, cell-based, Oocyte
Set-up: scale not given: the % may be the effect or the level left
CONDITION DESCRIPTION: probe carnitine, read-out: Activity
READOUT: activity at 20 µM (%)
Express your answer in %, writing the number without its unit.

Query: For CC[N+](CCCCC(=O)O)(C(C)C)C(C)C , what is its reported activity at 20 µM?
Reply: 40

---

TARGET OF ASSAY: Organic cation/carnitine transporter 2 (Homo sapiens, UniProt O76082)
Sequence (O76082 whole entry): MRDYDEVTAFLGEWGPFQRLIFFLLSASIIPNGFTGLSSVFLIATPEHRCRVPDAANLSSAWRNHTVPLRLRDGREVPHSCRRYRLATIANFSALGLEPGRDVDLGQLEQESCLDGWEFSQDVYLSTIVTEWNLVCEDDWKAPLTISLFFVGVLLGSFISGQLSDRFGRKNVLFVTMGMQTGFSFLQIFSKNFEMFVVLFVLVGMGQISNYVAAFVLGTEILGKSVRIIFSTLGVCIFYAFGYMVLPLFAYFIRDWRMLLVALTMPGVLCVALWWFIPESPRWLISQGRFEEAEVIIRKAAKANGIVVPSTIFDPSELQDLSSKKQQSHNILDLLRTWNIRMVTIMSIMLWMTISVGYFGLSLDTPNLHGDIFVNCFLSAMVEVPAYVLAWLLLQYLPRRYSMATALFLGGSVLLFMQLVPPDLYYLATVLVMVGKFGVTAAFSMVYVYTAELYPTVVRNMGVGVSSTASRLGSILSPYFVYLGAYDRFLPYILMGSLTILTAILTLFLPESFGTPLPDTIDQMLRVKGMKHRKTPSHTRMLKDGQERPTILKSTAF
ASSAY EXPLANATION: TP_TRANSPORTER: inhibition of carnitine uptake by Carnitine-related compound-13 at 20uM in Xenopus laevis oocytes
Format: functional, cell-based, Oocyte
Parameters: scale not given: the % may be the effect or the level left
CONDITION DESCRIPTION: probe carnitine, read-out: Activity
READOUT: activity at 20 µM
Write the numeric value and follow it with the unit.

Query: Recall the recorded activity at 20 µM for C[N+](C)(C)CC(O)CC(=O)[O-] (stereo unspecified) with Organic cation/carnitine transporter 2 (Homo sapiens, UniProt O76082) and state it.
Reply: 40%
